# experimental protocol: melting temperature; fluorescence melt of hairpins on a sequencing array, two-state fit, raised by 9.35 °C to match UV melts
# condition details: sodium 0.088 M
Consider the cut-off 50 °C. If the recorded Tm is strictly smaller, the label is Yes; if not, the label is No.

record sequence: GATCCTGTTCAGGATC ((((((....))))))
category: No

Would you kindly look at the next entry?
q: Would you kindly verify if Tm of GATCGCCGAAAGGCTATC (((.(((....))).))) is strictly less than 50 °C?
a: Yes

---

Exercise: for every item that follows, state its recorded Tm.
# experimental protocol: melting temperature; fluorescence melt of hairpins on a sequencing array, two-state fit, raised by 9.35 °C to match UV melts
# condition details: sodium 0.088 M
Answers are plain numbers, in °C.

record sequence: GCGTGAGGAAACTTACGC ((((.((....)).))))
Tm (°C): 52

record sequence: GAAACAGCGAAAGCTTTC (((..(((....))))))
Tm (°C): 29.1

record sequence: GCGGTCAGCCGC ((((....))))
Tm (°C): 57.4

record sequence: GTTTTTCGAAAGAAGAAC (((.(((....))).)))
Tm (°C): 37.3

record sequence: GATCAAGAGTTGATC ((((((...))))))
Tm (°C): 37.8

record sequence: GTCCTTGGAAACAAGAAC ((.((((....)))).))
Tm (°C): 30.5

record sequence: GATCCAGTGCTGGATC ((((((....))))))
Tm (°C): 52.8

record sequence: GCAATGCGAAAGCCTCGC ((.(.((....)).).))
Tm (°C): 31.5

Report Tm for each item below.
1. GATCGAGAACTCGATC ((((((....))))))
2. GTGAGCGCGAAAGCGCAC (((..(((....))))))
3. GATCCTGAGCAGGATC ((((((....))))))

a:
57
52.2
52.3

---

Exercise: for every item that follows, state its recorded Tm.
# experimental protocol: melting temperature; fluorescence melt of hairpins on a sequencing array, two-state fit, raised by 9.35 °C to match UV melts
# condition details: sodium 0.088 M
Answers are plain numbers, in °C.

record sequence: GGTTCCGAAAGGATTACC ((((((....)))..)))
readout kind: Tm
numeric readout: 34.6
//
record sequence: GCCCGTTCGAAAGAAGGC (((..(((....))))))
readout kind: Tm
numeric readout: 33.1
//
record sequence: GCTGTGCGAAAGCAAGC (((.(((....))))))
readout kind: Tm
numeric readout: 51.8
//
record sequence: GGAAGCGGAAACGTTTCC ((((.((....)).))))
readout kind: Tm
numeric readout: 49.8

Report Tm for each item below.
1. GATCTGATGCAGATC ((((((...))))))
2. GGTTTTGGAAACAAAGCC ((.((((....)))).))

a:
1: 48; 2: 46

---

# experimental protocol: melting temperature; fluorescence melt of hairpins on a sequencing array, two-state fit, raised by 9.35 °C to match UV melts
# condition details: sodium 0.088 M
Output schema: class label derived from Tm. Mapping: group A: < 40 °C; group B: ≥ 40 °C and < 50 °C; group C: ≥ 50 °C

Worked cases, answers included:
record sequence: GATCACGGAAGTGATC ((((((....))))))
category: group C
--
record sequence: GCACTCGAAAGAGACTGC ((((((....)))..)))
category: group A
--
record sequence: GACAGGCGAAAGCCCGTC (((.(((....))).)))
category: group C
--
record sequence: GGTGTAGGAAACTACATC (.(((((....))))).)
category: group B
--
record sequence: GCGGGCGCCGC ((((...))))
category: group C

q: State the band of GATGGAGGAAACTCCACC (.(((((....))))).)
a: group A

q: State the band of GCCATGGGAAACCACAGC ((..(((....)))..))
a: group A

q: State the band of GCACCTCCGAAAGGATGC (((..(((....))))))
a: group A

q: State the band of GCTCCCGAAAGGGAAGC ((((((....))).)))
a: group C

q: State the band of GTCCGCGAAAGCGACGAC ((((((....)))..)))
a: group C

---

# experimental protocol: melting temperature; fluorescence melt of hairpins on a sequencing array, two-state fit, raised by 9.35 °C to match UV melts
# condition details: sodium 0.088 M
Exercise: for every item that follows, state its recorded Tm.
One number for each entry, in °C.

Known Tm results, listed for orientation:
record sequence: GATCCATAGTGGATC ((((((...))))))
readout kind: Tm
numeric readout: 49.2
//
record sequence: GTGATGGGAAACCATCAC (((((((....)))))))
readout kind: Tm
numeric readout: 64.6
//
record sequence: GGCATCGAAAGATGAGCC ((((((....)))..)))
readout kind: Tm
numeric readout: 44.1

Report Tm for each item below.
1. CGTCCGGAAACGGCAACG ((((((....)))..)))
2. GGACACGGAAACGTGTTC (.(((((....))))).)
3. GCATATGGAAACGTATGC (((((.(....).)))))
4. GTCACCGAAAGGTTCGAC ((((((....)))..)))
5. GTTCGAGGAAACTCGAAC (((((((....)))))))
6. GATCTTGCCAAGATC ((((((...))))))
7. GAGGCCGAAAGGCGCTC ((((((....))).)))
8. ATCTCGAAAGAGAT (((((....)))))

a:
1. 38.5
2. 54.9
3. 47
4. 30.3
5. 65
6. 47.5
7. 57
8. 51.1

---

# experimental protocol: melting temperature; fluorescence melt of hairpins on a sequencing array, two-state fit, raised by 9.35 °C to match UV melts
# condition details: sodium 0.088 M
Assign Condition met to entries whose Tm meets or exceeds 50 °C; assign Condition not met to the rest.

Worked cases, answers included:
record sequence: GTTTGCGAAAGCAAAAC ((((((....))).)))
category: Condition met
--
record sequence: GTTCGTGGAAACATGAAC ((((.((....)).))))
category: Condition not met
--
record sequence: GATCCGGCACCGGATC ((((((....))))))
category: Condition met
--
record sequence: GTCACCACGAAAGTGGAC (((..(((....))))))
category: Condition not met
--
record sequence: GCCTGAGGAAACTTGGGC (((..((....))..)))
category: Condition not met
--
record sequence: GGGTCTGGAAACAGGTCC ((..(((....)))..))
category: Condition not met
--
record sequence: GATCCGGCAACGGATC ((((((....))))))
category: Condition met
--
record sequence: GGTTCGGGAAACCAAACC ((((.((....)).))))
category: Condition not met
--
record sequence: GATCCTTGTGAGGATC ((((((....))))))
category: Condition met
--
record sequence: GGGTCGGGAAACTGACCC (((((.(....).)))))
category: Condition met

q: For this sequence, is measured Tm 50 °C or higher? GATCCGGGAAACTGGGTC ((.((.(....).)).))
a: Condition not met

q: For this sequence, is measured Tm 50 °C or higher? GCAACCGAAAGGTGCTGC ((((((....)))..)))
a: Condition met

q: For this sequence, is measured Tm 50 °C or higher? GGACACGAAAGTGCATCC ((((((....)))..)))
a: Condition not met

q: For this sequence, is measured Tm 50 °C or higher? GCTAACGAAAGTTCAAGC ((((((....)))..)))
a: Condition not met

q: For this sequence, is measured Tm 50 °C or higher? GACTGACGAAAGTCGTC (((.(((....))))))
a: Condition met

q: For this sequence, is measured Tm 50 °C or higher? GTCAGCGGAAACGCTGGC (.(((((....))))).)
a: Condition met

q: For this sequence, is measured Tm 50 °C or higher? GATCGACTTTCGATC ((((((...))))))
a: Condition met

q: For this sequence, is measured Tm 50 °C or higher? GCGCCGCGAAAGCAGTGC ((.(.((....)).).))
a: Condition met

q: For this sequence, is measured Tm 50 °C or higher? GCGGTGCCCGC ((((...))))
a: Condition met

q: For this sequence, is measured Tm 50 °C or higher? GATCTAATGGTAGATC ((((((....))))))
a: Condition not met

q: For this sequence, is measured Tm 50 °C or higher? GCCGAGCGAAAGCTGCGC ((..(((....)))..))
a: Condition met

q: For this sequence, is measured Tm 50 °C or higher? GAAGGAGGAAACTCCTTC (((((((....)))))))
a: Condition met

q: For this sequence, is measured Tm 50 °C or higher? GTTTACGGAAACGTAAGC (.(((((....))))).)
a: Condition not met

q: For this sequence, is measured Tm 50 °C or higher? GCTAACGGAAACGTTAAC (.(((((....))))).)
a: Condition not met

q: For this sequence, is measured Tm 50 °C or higher? GCTAGGCGAAAGCTTAGC ((((.((....)).))))
a: Condition met

q: For this sequence, is measured Tm 50 °C or higher? GTGAGGGGAAACCCTCGC (.(((((....))))).)
a: Condition met

q: For this sequence, is measured Tm 50 °C or higher? GCAGATGGAAACATCTAC (.(((((....))))).)
a: Condition not met

q: For this sequence, is measured Tm 50 °C or higher? GTTCAAGCGAAAGCTAAC (((..(((....))))))
a: Condition not met

q: For this sequence, is measured Tm 50 °C or higher? GCCCCTTCGAAAGAAGGC (((..(((....))))))
a: Condition not met

q: For this sequence, is measured Tm 50 °C or higher? GGGCATTCGAAAGAACCC (((..(((....))))))
a: Condition not met

q: For this sequence, is measured Tm 50 °C or higher? GCAAAGGGAAACCTTTAC (.(((((....))))).)
a: Condition not met
